Protocol Summary: in vitro
Settings: human, CC50 (nM)
Parameter: CC50 (nM)

>>> value_reported("COc1cc2c(OC(=O)c3ccc(F)cc3)c3c(c(-c4ccc5c(c4)OCO5)c2cc1OC)C(=O)OC3 [Compound 17g]")
1320
>>> value_reported("COc1cc2c(O)c3c(c(-c4ccc5c(c4)OCO5)c2cc1OC)C(=O)OC3 [Compound 5, diphyllin]")
3610
>>> value_reported("COc1cc2c(OC3O[C@H](C)[C@@H](O)[C@H](OC(=O)c4cc([N+](=O)[O-])cc([N+](=O)[O-])c4)[C@H]3O)c3c(c(-c4ccc5c(c4)OCO5)c2cc1OC)C(=O)OC3 (stereo partly drawn) [Compound 31b]")
684
>>> value_reported("COc1cc2c(B3OC(C)(C)C(C)(C)O3)c3c(c(-c4ccc5c(c4)OCO5)c2cc1OC)C(=O)OC3 [Compound 19a]")
10500
>>> value_reported("C=CCOC(=O)O[C@@H]1COC(Oc2c3c(c(-c4ccc5c(c4)OCO5)c4cc(OC)c(OC)cc24)C(=O)OC3)[C@H](OC(=O)OCC=C)[C@H]1OC(C)=O (stereo partly drawn) [Compound 28ab3]")
386
>>> value_reported("COc1cc2c(OC3OC[C@@H](O)[C@H](OC(C)=O)[C@H]3O)c3c(c(-c4ccc5c(c4)OCO5)c2cc1OC)C(=O)OC3 (stereo partly drawn) [Compound 27ab, 3″-Acetyl-7-O-β-D-xylosyldiphyllin]")
2760

====

Test system: A549 cells
Protocol Summary: cells
Settings: Homo sapiens, A549, read-out: % Inhibition against A549 cells
# inhibition at 0.05 µg/mL annotations
Parameter: inhibition at 0.05 µg/mL (%)

>>> value_reported("C=CCOC(=O)O[C@@H]1COC(Oc2c3c(c(-c4ccc5c(c4)OCO5)c4cc(OC)c(OC)cc24)C(=O)OC3)[C@H](O)[C@H]1OC(C)=O (stereo partly drawn) [Compound 28ab1]")
40.9
>>> value_reported("COc1cc2c(OC3O[C@H](C)[C@@H](O)[C@H](OC(=O)C4CC4)[C@H]3O)c3c(c(-c4ccc5c(c4)OCO5)c2cc1OC)C(=O)OC3 (stereo partly drawn) [Compound 31g]")
54.6
>>> value_reported("COc1cc2c(OC3O[C@H](CO)[C@@H]4OC(C)(C)O[C@@H]4[C@H]3O)c3c(c(-c4ccc5c(c4)OCO5)c2cc1OC)C(=O)OC3 (stereo partly drawn) [Compound 32b]")
76

====

inhibition at 0.5 µg/mL reference
Test system: H5N1 virus
Protocol Summary: microbe, parasite or virus in culture
Type: cell-based, H5N1 influenza virus
Settings: Influenza A virus, H5N1, A549, 500 ng/mL; read-out: % Inhibition against H5N1 virus
Parameter: inhibition at 0.5 µg/mL (%)

>>> value_reported("COc1cc2c(OC3O[C@H](CO)[C@H](O)[C@@H]4OC(C)(C)O[C@@H]34)c3c(c(-c4ccc5c(c4)OCO5)c2cc1OC)C(=O)OC3 (stereo partly shown) [Compound 32d]")
83.5
>>> value_reported("COc1cc2c(OC3O[C@@H]4COC(C)(C)O[C@@H]4[C@H](O)[C@H]3O)c3c(c(-c4ccc5c(c4)OCO5)c2cc1OC)C(=O)OC3 (stereo partly shown) [Compound 32c]")
88.1
>>> value_reported("COc1cc2c(OC3O[C@H](CO)[C@@H](O)[C@H](O)[C@H]3O)c3c(c(-c4ccc5c(c4)OCO5)c2cc1OC)C(=O)OC3 (stereo partly drawn) [Compound 26f, 7-O-β-D-glucopyranosyldiphyllin]")
87.2
>>> value_reported("CN(C)CCOc1ccc(/C(=C(/CCCl)c2ccccc2)c2ccccc2)cc1 [Toremifene, toremifene, reference compound]")
28.4

Attribution: patent US11638713B2
